Test: Mouse PK studies (plasma and liver exposure)
Assay type: in vivo, C57BL/6 mice
Details: male, C57BL/6N, mouse, plasma, po, 100 mg/kg, PO 100 mg/kg in 0.5% methocell, mice, individual subject
readout: Cmax (µM)
Numeric answer only, unit µM assumed.

q: Entry "Nc1ccc(C(=O)Nc2cc(F)c(F)c(F)c2)cc1S(N)(=O)=O" : reported Cmax = ?
a: 17.2

----------
Experiment: Mouse PK studies (plasma and liver exposure)
Type: in vivo, C57BL/6 mice
Conditions: male, C57BL/6N, mouse, liver, po, 100 mg/kg, 24 Hours, PO 100 mpk in 0.5% methocell, Mean; read-out: Liver concentrations
readout: concentration at 24 h (nM)
Numeric answer only, unit nM assumed.

q: Entry "Nc1ccc(C(=O)Nc2cc(F)c(F)c(F)c2)cc1S(N)(=O)=O" : reported concentration at 24 h = ?
a: 2000

All figures here come from patent US20210276967A1.
